- ASSAY_SYSTEM: VGAT (vesicular GABA transporter) (Rattus norvegicus)
- Construct: recombinant, expressed in insect cells or E. coli, Ni-NTA purified, reconstituted in asolectin liposomes
- Sequence (O35458 1-525): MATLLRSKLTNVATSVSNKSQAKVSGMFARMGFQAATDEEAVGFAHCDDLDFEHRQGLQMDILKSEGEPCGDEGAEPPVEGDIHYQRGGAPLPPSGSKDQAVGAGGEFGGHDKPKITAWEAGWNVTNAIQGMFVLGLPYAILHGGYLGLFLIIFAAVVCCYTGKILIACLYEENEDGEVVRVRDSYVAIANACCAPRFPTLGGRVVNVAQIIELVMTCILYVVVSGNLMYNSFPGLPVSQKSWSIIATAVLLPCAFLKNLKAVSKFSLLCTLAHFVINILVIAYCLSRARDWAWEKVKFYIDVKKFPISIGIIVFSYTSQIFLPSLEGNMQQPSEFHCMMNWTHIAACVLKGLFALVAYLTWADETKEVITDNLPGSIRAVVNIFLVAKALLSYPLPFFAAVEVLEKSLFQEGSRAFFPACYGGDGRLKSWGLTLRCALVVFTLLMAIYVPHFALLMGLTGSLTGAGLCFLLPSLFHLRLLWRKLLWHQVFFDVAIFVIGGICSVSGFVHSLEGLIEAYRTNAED
- ASSAY_NOTES: inhibition of valinomycin-evoked radiolabelled substrate uptake into proteoliposomes
Each entry below carries its reported IC50.

1) O=CC(=O)O [glyoxylate] | > 10 mM

Field: next compound
So what's the measured IC50 for this one? CC(=O)CC(=O)O [acetoacetate]
> 10 mM

---

- ASSAY_SYSTEM: VEAT (vesicular excitatory amino acid transporter) (Mus musculus, UniProt Q8BN82)
- Construct: gene Slc17a5; recombinant, expressed in insect cells or E. coli, Ni-NTA purified, reconstituted in asolectin liposomes
- Sequence (Q8BN82 whole entry): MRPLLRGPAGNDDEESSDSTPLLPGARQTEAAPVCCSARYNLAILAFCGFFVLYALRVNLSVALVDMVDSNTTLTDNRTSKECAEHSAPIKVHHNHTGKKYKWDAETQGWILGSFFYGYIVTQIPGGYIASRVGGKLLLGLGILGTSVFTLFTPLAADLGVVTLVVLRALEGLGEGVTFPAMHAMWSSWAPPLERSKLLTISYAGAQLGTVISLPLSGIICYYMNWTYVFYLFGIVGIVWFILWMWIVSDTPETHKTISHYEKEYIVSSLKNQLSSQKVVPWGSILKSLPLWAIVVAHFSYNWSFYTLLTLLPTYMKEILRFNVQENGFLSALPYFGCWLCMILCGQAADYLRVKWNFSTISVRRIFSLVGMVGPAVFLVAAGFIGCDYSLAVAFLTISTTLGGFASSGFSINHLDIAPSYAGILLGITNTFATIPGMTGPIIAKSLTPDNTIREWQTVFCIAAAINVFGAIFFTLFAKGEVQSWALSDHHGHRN
- ASSAY_NOTES: inhibition of valinomycin-evoked radiolabelled substrate uptake into proteoliposomes
- Format: biochemical
- MEASUREMENT_SETUP: read-out: IC50 (μmol/L) / Glyoxylate
MEASURED_ATTRIBUTE: IC50 (µmol/L)
Value expressed in µmol/L; do not type the unit.

Param item = O=CC(=O)O [glyoxylate] ; retrieve measured IC50.
52

---

- ASSAY_SYSTEM: VNUT (vesicular nucleotide transporter, SLC17A9 protein) (Homo sapiens)
- Construct: recombinant, expressed in insect cells or E. coli, octylglucoside-solubilized, Ni-NTA purified, reconstituted in asolectin liposomes
- Sequence (Q9BYT1 whole entry): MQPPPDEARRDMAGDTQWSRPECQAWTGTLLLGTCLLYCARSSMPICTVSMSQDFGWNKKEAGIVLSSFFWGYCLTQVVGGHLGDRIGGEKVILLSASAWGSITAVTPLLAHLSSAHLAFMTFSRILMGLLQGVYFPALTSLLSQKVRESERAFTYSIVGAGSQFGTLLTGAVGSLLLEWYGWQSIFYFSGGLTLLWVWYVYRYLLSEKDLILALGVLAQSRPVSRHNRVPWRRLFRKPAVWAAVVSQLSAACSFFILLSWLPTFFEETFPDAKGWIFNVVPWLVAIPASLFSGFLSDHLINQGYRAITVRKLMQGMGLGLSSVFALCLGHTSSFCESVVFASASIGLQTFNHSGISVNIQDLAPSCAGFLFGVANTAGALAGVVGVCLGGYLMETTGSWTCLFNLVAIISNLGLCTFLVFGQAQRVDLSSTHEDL
- ASSAY_NOTES: inhibition of valinomycin-evoked radiolabelled substrate uptake into proteoliposomes
- Assay type: biochemical
- MEASUREMENT_SETUP: read-out: IC50 (μmol/L) / Acetoacetate
MEASURED_ATTRIBUTE: IC50 (µmol/L)
Dear colleague, please return just the value in µmol/L, with no unit written.

Requested read-out: IC50. Entry: CC(=O)CC(=O)O [acetoacetate]
190

---

- ASSAY_SYSTEM: VAChT (vesicular acetylcholine transporter) (Homo sapiens, UniProt Q16572)
- Construct: recombinant, expressed in insect cells or E. coli, Ni-NTA purified, co-reconstituted with bacterial F-ATPase in liposomes
- Sequence (Q16572 whole entry): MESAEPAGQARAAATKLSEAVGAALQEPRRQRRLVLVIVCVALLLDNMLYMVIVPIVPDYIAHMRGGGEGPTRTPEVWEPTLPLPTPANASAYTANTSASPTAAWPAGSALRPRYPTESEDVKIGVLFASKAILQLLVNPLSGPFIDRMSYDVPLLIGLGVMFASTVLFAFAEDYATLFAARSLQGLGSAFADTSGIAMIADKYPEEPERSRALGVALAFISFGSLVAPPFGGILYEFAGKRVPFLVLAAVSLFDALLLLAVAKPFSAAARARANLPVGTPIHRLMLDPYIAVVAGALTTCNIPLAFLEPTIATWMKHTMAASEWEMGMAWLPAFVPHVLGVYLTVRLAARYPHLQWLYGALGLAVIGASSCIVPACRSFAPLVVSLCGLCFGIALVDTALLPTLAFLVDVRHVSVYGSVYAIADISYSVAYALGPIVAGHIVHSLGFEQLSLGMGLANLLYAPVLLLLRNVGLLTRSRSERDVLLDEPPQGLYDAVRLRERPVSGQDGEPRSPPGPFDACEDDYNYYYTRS
- ASSAY_NOTES: inhibition of ATP-driven radiolabelled substrate uptake into proteoliposomes with F-ATPase
pIC50: −log10 of the molar value.
MEASURED_ATTRIBUTE: pIC50

1) O=CC(=O)O [glyoxylate] | < 2.00

Next up:
Recorded pIC50 for CC(=O)CC(=O)O [acetoacetate] , please?
< 2.00
